Test system: SW1417
Test: Cell growth assay
Format: cell-based
Details: Homo sapiens, 72 h; SW1417, BRAF(V600E), RAS WT, 3-day; read-out: gIC50
Procedure: Growth was measured with CellTiter-Glo® (Promega) reagent per the manufacturer’s protocol, using a PerkinElmer EnVision™ reader at t = 0 and 72 h. IC50 values for cell growth inhibition (gIC50) were determined. (PDF) Click here for additional data file.
MEASURED QUANTITY: IC50 (nM)
# value in nM; strip the unit string

Requested field: IC50. Item: CC(C)(C)c1nc(-c2cccc(NS(=O)(=O)c3c(F)cccc3F)c2F)c(-c2ccnc(N)n2)s1 [dabrafenib] 158
